These entries and their values trace back to patent US8748417B2.

Measured IC50, listed per entry for reference.
Target: purified mutant MGL (mut-MGLL 11-313 L179S L186S) (Homo sapiens, UniProt Q99685, L169S/L176S)
Construct: purified mutant MGL (mut-MGLL 11-313 L179S L186S)
Test: MGL enzyme activity assay (4MU-B cleavage), mutant MGL
Settings: mutant MGL 5 nM, 4MU-B 10 μM, 37° C.; read-out: MGL mutant inh IC50
endpoint.name: IC50 (nM)

{"compound": "O=C(c1ccc(-c2ccc(C(F)(F)F)cc2)cc1)N1CC(N[C@H]2CCN(C(=O)c3ccccc3)C2)C1", "units": "nM", "bound.sign": "=", "assay.result": 158}
{"compound": "Cn1cc(-c2ccccc2)c2ccc(C(=O)N3CC(N[C@H]4CCN(C(=O)c5ccccc5)C4)C3)cc21", "units": "nM", "bound.sign": "=", "assay.result": 39.5}
{"compound": "O=C(c1ccccc1)N1CC[C@H](NC2CN(C(=O)c3cc4ccc(-c5ccc(C(F)(F)F)cc5)cc4s3)C2)C1", "units": "nM", "bound.sign": "=", "assay.result": 267}
{"compound": "O=C(c1ccccc1)N1CC[C@H](NC2CN(C(=O)c3sc4cc(-c5ccc(C(F)(F)F)cc5)ccc4c3Cl)C2)C1", "units": "nM", "bound.sign": "<", "assay.result": 5}
{"compound": "O=C(c1ccccc1)N1CC[C@H](NC2CN(C(=O)c3cc4cc(-c5ccc(C(F)(F)F)cc5)ccc4s3)C2)C1", "units": "nM", "bound.sign": "=", "assay.result": 226}

----------
Biological target: purified wild type MGL (wt-MGLL 6H-11-313) (Homo sapiens)
Sequence (Q99685 1-303): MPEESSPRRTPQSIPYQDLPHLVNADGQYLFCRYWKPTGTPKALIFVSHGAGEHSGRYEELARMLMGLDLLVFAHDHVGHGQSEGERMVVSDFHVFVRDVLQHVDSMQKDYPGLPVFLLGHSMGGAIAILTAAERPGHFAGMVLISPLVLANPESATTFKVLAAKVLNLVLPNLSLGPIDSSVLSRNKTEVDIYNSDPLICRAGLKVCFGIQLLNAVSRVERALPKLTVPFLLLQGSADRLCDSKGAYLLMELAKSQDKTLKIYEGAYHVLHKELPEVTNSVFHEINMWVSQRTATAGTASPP
pIC50: −log10 of the molar value.

{"molecule": "O=C(c1cc2cc(-c3ccccc3)ccc2s1)N1CC(N[C@H]2CCN(C(=O)c3nccs3)C2)C1 [Cpd 129]", "pIC50": "> 8.30"}
{"molecule": "O=C(c1ccccc1)N1CC[C@H](NC2CN(C(=O)c3sc4cc(-c5cccc(C(F)(F)F)c5)ccc4c3Cl)C2)C1 [Cpd 32]", "pIC50": "> 8.30"}
{"molecule": "O=C(c1ccccc1)N1CC[C@H](NC2CN(C(=O)c3cc4cc(-c5cccc(C(F)(F)F)c5)ccc4s3)C2)C1 [Cpd 51]", "pIC50": "> 8.30"}

----------
Listing of entries alongside the reported IC50.
Target: purified wild type MGL (wt-MGLL 6H-11-313) (Homo sapiens, UniProt Q99685)
Sequence (Q99685 1-303): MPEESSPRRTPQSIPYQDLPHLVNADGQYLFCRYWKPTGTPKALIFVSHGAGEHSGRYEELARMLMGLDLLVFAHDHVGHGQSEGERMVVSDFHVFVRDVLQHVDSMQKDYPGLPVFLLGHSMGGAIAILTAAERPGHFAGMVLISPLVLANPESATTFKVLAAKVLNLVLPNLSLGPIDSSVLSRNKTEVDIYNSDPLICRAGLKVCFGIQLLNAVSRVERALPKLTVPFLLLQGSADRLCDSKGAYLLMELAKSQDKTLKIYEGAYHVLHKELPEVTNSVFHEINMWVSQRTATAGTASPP

{"compound": "Cn1cc(Cc2ccc(F)cc2)c2ccc(C(=O)N3CC(N[C@H]4CCN(C(=O)c5nccs5)C4)C3)cc21", "bound.sign": "<", "IC50 / nM": 5}
{"compound": "O=C(c1ccc(Cc2ccc(C(F)(F)F)cc2)cc1)N1CC(N[C@H]2CCN(C(=O)c3ccccc3)C2)C1", "bound.sign": "<", "IC50 / nM": 5}
{"compound": "O=C(c1cscn1)N1CC[C@H](NC2CN(C(=O)c3sc4ccc(-c5ccccc5)cc4c3F)C2)C1", "bound.sign": "<", "IC50 / nM": 5}
{"compound": "O=C(c1ccccc1)N1CC[C@H](NC2CN(C(=O)c3sc4ccc(-c5ccccc5)cc4c3F)C2)C1", "bound.sign": "<", "IC50 / nM": 5}
{"compound": "O=C(c1cscn1)N1CC[C@H](NC2CN(C(=O)c3sc4cc(-c5ccc(C(F)(F)F)cc5)ccc4c3F)C2)C1", "bound.sign": "<", "IC50 / nM": 5}
{"compound": "Cn1cc(-c2cccc(F)c2)c2ccc(C(=O)N3CC(N[C@H]4CCN(C(=O)c5nccs5)C4)C3)cc21", "bound.sign": "<", "IC50 / nM": 5}
{"compound": "Cc1ccc2c(C(F)(F)F)c(C(=O)N3CC(N[C@H]4CCN(C(=O)c5cscn5)C4)C3)sc2c1", "bound.sign": "=", "IC50 / nM": 488}
{"compound": "Cc1c(C(=O)N2CC(N[C@H]3CCN(C(=O)c4nccs4)C3)C2)sc2ccc(Cl)cc12", "bound.sign": "<", "IC50 / nM": 5}
{"compound": "Cc1c(C(=O)N2CC(N(C=O)[C@H]3CCN(C(=O)c4ccccc4)C3)C2)sc2ccc(Cl)cc12", "bound.sign": "=", "IC50 / nM": 4880}
{"compound": "Cc1nc(-c2ccc(Cl)cc2)sc1C(=O)N1CC(N[C@H]2CCN(C(=O)c3nccs3)C2)C1", "bound.sign": "=", "IC50 / nM": 446}
{"compound": "O=C(c1ccccc1)N1CC[C@H](NC2CN(C(=O)c3sc4cc(C(F)(F)F)ccc4c3C3CC3)C2)C1", "bound.sign": "=", "IC50 / nM": 210}
{"compound": "Cn1cc(-c2ccccc2)c2ccc(C(=O)N3CC(N[C@H]4CCN(C(=O)c5nccs5)C4)C3)cc21", "bound.sign": "=", "IC50 / nM": 13.9}
{"compound": "Cn1nc(-c2ccccc2)c2cc(C(=O)N3CC(N[C@H]4CCN(C(=O)c5cscn5)C4)C3)ccc21", "bound.sign": "=", "IC50 / nM": 298}
{"compound": "Cc1c(C(=O)N2CC(N(C=O)[C@H]3CCN(C(=O)c4cscn4)C3)C2)sc2ccc(Cl)cc12", "bound.sign": "=", "IC50 / nM": 2440}
{"compound": "Cn1nc(-c2cccc(F)c2)c2cc(C(=O)N3CC(N[C@H]4CCN(C(=O)c5ccccc5)C4)C3)ccc21", "bound.sign": "=", "IC50 / nM": 459}
{"compound": "Cc1c(C(=O)N2CC(N[C@H]3CCN(C(=O)c4ccccc4)C3)C2)sc2cc(C(F)(F)F)ccc12", "bound.sign": "=", "IC50 / nM": 22.6}
{"compound": "O=C(c1ccccc1)N1CC[C@H](NC2CN(C(=O)c3ccc(-c4cccc(C(F)(F)F)c4)cc3F)C2)C1", "bound.sign": "=", "IC50 / nM": 35.2}
{"compound": "CCN(C1CN(C(=O)c2ccc(-c3cccc(C(F)(F)F)c3)cc2)C1)[C@H]1CCN(C(=O)c2ccccc2)C1", "bound.sign": "=", "IC50 / nM": 286}
{"compound": "Cc1c(C(=O)N2CC(N(C=O)[C@H]3CCN(C(=O)c4nccs4)C3)C2)sc2ccc(Cl)cc12", "bound.sign": "=", "IC50 / nM": 231}
{"compound": "Cc1cc(-c2cccc(C(F)(F)F)c2)ccc1C(=O)N1CC(N[C@H]2CCN(C(=O)c3nccs3)C2)C1", "bound.sign": "<", "IC50 / nM": 5}
